cytotoxicity at 10 µM listing for selected compounds.
# METHOD SUMMARY: Toxicity liver stage against HepG2, at 10uM
# Type: cell-based
# Parameters: test concentration 10 uM, cell line HepG2-A16-CD81EGFP
# APPLIED CONDITIONS: human, HepG2-A16-CD81EGFP cells; read-out: INHIBITION
Quick reminder: number only, in %, skip the unit.

Record excerpt, results attached:
1. COc1cc(N2CC[C@@H]3O[C@@H](c4ccncn4)C[C@H]3C2)ncn1    12.6
2. Cn1ccnc1CN1CCCN(C(=O)c2ccc3c(c2)COC3)CC1    -10.9
3. CCCc1noc(CN2CCCCC2Cn2cncn2)n1 (centres undefined)    4.84

I am curious: what cytotoxicity at 10 µM value has been reported for "Cc1cccc(NC2CCN(C(=O)Nc3cc(F)cc(F)c3)CC2)n1" ?
-0.961

cytotoxicity at 10 µM lookup needed for COCC(=O)N1CCN(C(=O)NC(C)C)CC2(CC(=O)N(C)C2)C1 (centres undefined) , thanks.
1.76

Which cytotoxicity at 10 µM value belongs to "CN(C)c1cc2c(nn1)CCN(C(=O)c1cc3c(s1)CCCC3)C2" ?
-6.3

What value of cytotoxicity at 10 µM has been reported for the following compound? "O=C(c1cscn1)N1CC[C@H]2[C@@H]1CCC(=O)N2c1ccccc1"
-68.8

Look up cytotoxicity at 10 µM: "Cc1cc(CN(C)C(=O)NCc2ccnc(N(C)C)c2)no1"
5.85

###

# METHOD SUMMARY: Toxicity liver stage against HepG2, at 10uM
# Assay type: cell-based
# Parameters: test concentration 10 uM, cell line HepG2-A16-CD81EGFP
# APPLIED CONDITIONS: human, HepG2-A16-CD81EGFP cells; read-out: INHIBITION
PROPERTY NAME: cytotoxicity at 10 µM (%)
Output spec: scalar in %, unitless text.

Reference set, count: 6
1. Cc1cc(CN(C)C2CCCN(Cc3noc(C4CC4)n3)C2)on1 (configuration not stated)    -1.68
2. CNC(=O)COC1COC2(CCN(Cc3cccnc3)CC2)C1 (configuration not stated)    6.53
3. Cn1cc(C2CCCN2C(=O)COCCOc2ccccc2)cn1 (configuration not stated)    -16.3
4. Cc1cc(NC(C)C(=O)N2CCN(c3ncccn3)CC2)ccc1F (configuration not stated)    7.77
5. Cn1cnc2c1C(COCC1CC1)CN(C(=O)c1cscn1)C2 (configuration not stated)    0.922
6. Cc1[nH]c2ccc(Cl)cc2c1CCNc1ncnc2c1CCNC2    22.4

Fill blank: measured cytotoxicity at 10 µM of the compound "Cc1nc([C@H]2C[C@H]3CN(C(=O)c4cc(C)c(C)s4)CC[C@@H]3O2)no1" is ____.
0.732

Quick one: cytotoxicity at 10 µM of "Cc1noc(C)c1CN1C[C@H](OCC2CCN(C)CC2)[C@H]2COC[C@H]21" ?
-4.49

Reported cytotoxicity at 10 µM for c1cncc(COCC2CN(Cc3ccsc3)Cc3ccnn3C2)c1 (configuration not stated) : what is it?
-140

Consider the compound shown here: "CCCS(=O)(=O)NCc1cccnc1Oc1ccc(C)nc1" What is its recorded cytotoxicity at 10 µM?
-1.15

Any idea what its cytotoxicity at 10 µM is? The compound is "CCOC(=O)[C@@H]1[C@@H](c2ccccc2)CN2CCN(C(=O)C3CC3)C[C@H]12"
-0.973

Would you kindly share the measured cytotoxicity at 10 µM for "Cc1nc(CN(C)C(=O)c2cccc(CC3CCNCC3)c2)no1" ?
-5.56

cytotoxicity at 10 µM for "CCOc1ccc(CN2CC[C@@H]3CC[C@H](C2)N3)cc1CO" ?
5.99

Which cytotoxicity at 10 µM is reported for this compound? "Cc1nn(C)cc1-c1cc(C(=O)NCC(C)(C)c2ccc(F)cc2)n[nH]1"
-1.29

Return reported cytotoxicity at 10 µM; argument: "Cc1ncsc1C(=O)NCCSCCCO"
-11.3

Return reported cytotoxicity at 10 µM; argument: "Cc1cc(C(=O)N2CCO[C@H]3[C@H](OCCN(C)C)CC[C@@H]32)c(C)[nH]1"
7.07

###

# METHOD SUMMARY: Toxicity liver stage against HepG2, at 10uM
# Type: cell-based
# Set-up: test concentration 10 uM, cell line HepG2-A16-CD81EGFP
# APPLIED CONDITIONS: human, HepG2-A16-CD81EGFP cells; read-out: INHIBITION
# cytotoxicity at 10 µM values compiled below
Report only the number, with the unit % understood.

Please give the measured cytotoxicity at 10 µM for this molecule: "O=C(Cc1ccc2c(c1)OCO2)N1CCN(c2ccncc2)CC1"
-22.9

###

// reported cytotoxicity at 10 µM per item
# METHOD SUMMARY: Toxicity liver stage against HepG2, at 10uM
# Format: cell-based
# Set-up: test concentration 10 uM, cell line HepG2-A16-CD81EGFP
# APPLIED CONDITIONS: human, HepG2-A16-CD81EGFP cells; read-out: INHIBITION
Answer in %, number only, no unit symbol.

Record excerpt, results attached:
1. COc1ccccc1Cc1nnc(SCCS(C)(=O)=O)o1    5.89
2. Cc1nsc(NC(=O)N2CCN(Cc3ccc(F)cc3)C(=O)C2)n1    1.07
3. CC(C)CNC(=O)c1cc(C2CC2)nc2onc(C3CCNCC3)c12    10.8

Consider the molecule "CC(C)CN1CCS(=O)(=O)[C@@H]2CCN(S(=O)(=O)c3ccccc3)CC[C@@H]21" and give its measured cytotoxicity at 10 µM.
3.62

Requested field: cytotoxicity at 10 µM. Item: Cc1ccc(CN2Cc3nccn3CC(Cn3cccn3)C2)s1 (stereo unspecified)
-101

Endpoint output: cytotoxicity at 10 µM of "Cc1cc(C)n(C2CN(CCc3ccncc3)C2)n1" . Value?
-1.12

###

# METHOD SUMMARY: Toxicity liver stage against HepG2, at 10uM
# Type: cell-based
# Set-up: test concentration 10 uM, cell line HepG2-A16-CD81EGFP
# APPLIED CONDITIONS: human, HepG2-A16-CD81EGFP cells; read-out: INHIBITION
cytotoxicity at 10 µM: recorded values
The answer is to be given in %; state only the numeric part.

Worked examples, 5 compounds total:
1) COc1ccc2cnn(CC(=O)NC3CCCCC3)c(=O)c2c1OC    -2.49
2) O=C(c1cc(Br)ccc1-n1cnnn1)N1CCCCC1    -1.25
3) Cc1nc(C)n(CC2CCCN2CCOc2ccc(C#N)cc2)n1 (stereo unspecified)    -10.1
4) Cn1ccc(CN2CCCC(CNS(C)(=O)=O)C2)cc1=O (stereo unspecified)    9.31
5) Cc1cc(N2CCCC3(CN(C)C(=O)O3)C2)c2cc3c(cc2n1)OCO3 (stereo unspecified)    -5.05

So what's the measured cytotoxicity at 10 µM for this one? "CC(=O)NCC(=O)N(CCN1CCOCC1)Cc1ccco1"
-9.04

Bench note: what cytotoxicity at 10 µM did C=C(C)COc1ccccc1C(=O)N1CCC(C(=O)NCC)C1 (stereo unspecified) show?
8.89

// query cytotoxicity at 10 µM value for entry "Cc1cc(CC(=O)N2CCN(CC3CC3)[C@@H]3CS(=O)(=O)C[C@@H]32)ccc1F"
5.17

Return reported cytotoxicity at 10 µM; argument: "O=S(=O)(NCCCn1cccn1)c1ccc2c(c1)CCC2"
-4.59

# cytotoxicity at 10 µM lookup, item "COc1ccc(CN(C)Cn2cc(C)n(-c3cc(C)on3)c2=O)cc1"
3.36

Need cytotoxicity at 10 µM of CCc1n[nH]c(C2CN(Cc3nccn3CC)CCO2)n1 (stereo unspecified) , thanks.
-1.85

###

# METHOD SUMMARY: Toxicity liver stage against HepG2, at 10uM
# Format: cell-based
# Design: test concentration 10 uM, cell line HepG2-A16-CD81EGFP
# APPLIED CONDITIONS: human, HepG2-A16-CD81EGFP cells; read-out: INHIBITION
PROPERTY NAME: cytotoxicity at 10 µM (%)
Your answer should be a plain number; it is taken to be in %.

1) CC1(NC(=O)Cc2csc(C(C)(C)C)n2)CCS(=O)(=O)C1 (configuration not stated)    -4.17

Please look up its cytotoxicity at 10 µM: CCN1CCCC(O)(c2nc(C)c(CCOc3ccccc3F)s2)CC1 (configuration not stated)
-32.1

For the molecule O=C1N(Cc2cccc(F)c2F)CCCC1(O)CNCC1CCCCC1 (configuration not stated) , what cytotoxicity at 10 µM is on record?
-1.29

Quick check: cytotoxicity at 10 µM of "O=C([C@H]1C[C@@H]2[C@@H](C1)OCCN2CC1CC1)N1CCCC1" ?
-2.2

Value lookup for cytotoxicity at 10 µM; key = "Cc1nnc(CCNC2CCN(c3ncnc4c(C)csc34)CC2)s1"
20.7

I'd like to know its cytotoxicity at 10 µM. The molecule in question is c1cncc(CN2CCCC3(COCCN(c4cncnc4)C3)C2)c1 (configuration not stated)
-73.3
